Would you kindly list IC50 for each of these molecules?
Molecular target: all-trans retinoic acid receptors (RAR) (Homo sapiens, UniProt P10276)
Construct: determined by the use of the nuclear extract fraction of HL60; endogenous in cells
Sequence (P10276 1-462): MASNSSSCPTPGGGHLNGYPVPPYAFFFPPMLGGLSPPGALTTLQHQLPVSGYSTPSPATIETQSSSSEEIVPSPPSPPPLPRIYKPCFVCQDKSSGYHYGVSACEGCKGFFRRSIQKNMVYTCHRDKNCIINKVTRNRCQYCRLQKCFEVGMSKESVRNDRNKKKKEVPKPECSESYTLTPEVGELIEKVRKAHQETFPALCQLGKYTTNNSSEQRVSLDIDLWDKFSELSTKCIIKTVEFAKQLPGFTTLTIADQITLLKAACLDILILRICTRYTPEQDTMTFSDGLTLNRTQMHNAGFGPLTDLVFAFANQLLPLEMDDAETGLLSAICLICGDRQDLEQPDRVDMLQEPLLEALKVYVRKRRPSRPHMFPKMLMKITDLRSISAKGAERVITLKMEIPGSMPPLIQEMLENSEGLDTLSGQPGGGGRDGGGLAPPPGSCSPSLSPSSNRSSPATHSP
Assay: Receptor binding assay using nuclear extract fraction of human promyelocytic leukemia cell HL60
Conditions: inhibition of specific binding of 3H-all-trans retinoic acid, 4° C., 16 hours
Give the value in nM but do not write nM after it.

Retrieve IC50 on all-trans retinoic acid receptors (RAR) (Homo sapiens, UniProt P10276); query `CC(/C=C/C(C)=C/c1ccc2c(c1)CCCN2C(C)C)=C\C(=O)O` 20

Retrieve IC50 on all-trans retinoic acid receptors (RAR) (Homo sapiens, UniProt P10276); query CCOC(=O)/C(F)=C(/C)c1ccc2c(c1)CC(C)CN2C(C)C (stereo not drawn) 12.5

Retrieve IC50 on all-trans retinoic acid receptors (RAR) (Homo sapiens, UniProt P10276); query COC(=O)/C=C(C)/C=C/C(F)=C(/C)c1ccc2c(c1)CC(C)CN2C(C)C (stereo not drawn) 13

Retrieve IC50 on all-trans retinoic acid receptors (RAR) (Homo sapiens, UniProt P10276); query `CC(/C=C/C(F)=C(/C)c1ccc2c(c1)CCCN2C(C)C)=C\C(=O)O` 5.4

Retrieve IC50 on all-trans retinoic acid receptors (RAR) (Homo sapiens, UniProt P10276); query COC(=O)/C=C(C)/C=C/C(F)=C(/C)c1ccc2c(c1)C(C)CCN2C(C)C (stereo not drawn) 17
